Measured log10 of IC50 of individual entries
- tested on: full-length human AR (Homo sapiens)
- Construct: expression vector encoding full-length human AR
- Sequence (P10275 1-920): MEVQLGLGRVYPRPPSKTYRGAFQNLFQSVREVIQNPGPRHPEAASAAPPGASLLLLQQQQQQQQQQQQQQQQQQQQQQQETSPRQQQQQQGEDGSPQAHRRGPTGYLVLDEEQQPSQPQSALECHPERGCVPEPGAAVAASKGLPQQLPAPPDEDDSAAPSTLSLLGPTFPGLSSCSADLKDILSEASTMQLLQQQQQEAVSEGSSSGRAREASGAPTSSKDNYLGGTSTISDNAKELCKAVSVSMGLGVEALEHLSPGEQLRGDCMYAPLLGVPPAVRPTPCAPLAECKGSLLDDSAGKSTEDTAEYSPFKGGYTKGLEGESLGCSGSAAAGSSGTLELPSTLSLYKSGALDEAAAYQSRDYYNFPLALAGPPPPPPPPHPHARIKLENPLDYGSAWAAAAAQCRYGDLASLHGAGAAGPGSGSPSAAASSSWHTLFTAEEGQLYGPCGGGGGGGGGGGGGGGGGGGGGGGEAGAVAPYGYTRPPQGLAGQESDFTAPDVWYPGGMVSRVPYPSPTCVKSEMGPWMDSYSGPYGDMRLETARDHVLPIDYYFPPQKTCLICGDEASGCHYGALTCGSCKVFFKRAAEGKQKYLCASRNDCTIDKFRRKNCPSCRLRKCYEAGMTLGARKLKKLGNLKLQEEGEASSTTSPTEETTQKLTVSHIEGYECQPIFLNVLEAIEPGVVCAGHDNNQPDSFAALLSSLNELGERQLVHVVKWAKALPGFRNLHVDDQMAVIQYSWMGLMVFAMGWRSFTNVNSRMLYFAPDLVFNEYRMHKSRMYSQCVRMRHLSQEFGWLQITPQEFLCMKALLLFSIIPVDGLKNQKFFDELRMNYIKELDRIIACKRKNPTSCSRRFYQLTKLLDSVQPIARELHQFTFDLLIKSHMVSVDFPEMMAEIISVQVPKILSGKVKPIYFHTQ
- procedure details: AR antagonism, reporter gene assay in hAR/HEK293 cells
- experimental context: HEK293 cells stably transfected with full-length human AR and androgen responsive luciferase reporter; co-treated with submaximal testosterone (usually 0.45 nM); 1% DMSO; triplicates
readout name: log10 of IC50 (log10 of the value in nM)

| molecule | tested on | log10 of IC50 |
| --- | --- | --- |
| CCN(c1ccc(C#N)c(Cl)c1)C1CCCC(c2cncc(OC)c2)C1 (single isomer, unassigned; diastereomer 2) [Ex. 83 cis-diastereomer] | full-length human AR (Homo sapiens) | 1.20 |
| CCN(c1ccc(C#N)c(C(F)(F)F)c1)C1CCC=C(c2ccncc2OC)C1 (single isomer, unassigned; isomer 4) [Ex. 84 3,4-isomer] | full-length human AR (Homo sapiens) | 1.70 |
| CCN(c1ccc(C#N)c(C(F)(F)F)c1)C1CC(n2ccnc2)CCC1(C)C (single isomer, unassigned) [Ex. 46 cis-enantiomer 2] | full-length human AR (Homo sapiens) | 1.60 |
| CCN(c1ccc(C#N)c(C(F)(F)F)c1)C1CCCC(c2nnco2)C1 (single isomer, unassigned; diastereomer 4) [Ex. 19 cis-diastereomer] | full-length human AR (Homo sapiens) | 1.81 |
| CCN(c1ccc(C#N)c(Cl)c1)C1CCCC(n2ccnc2)C1 (single isomer, unassigned; diastereomer 4) [Ex. 91 cis-diastereomer] | full-length human AR (Homo sapiens) | 1.81 |
| CN(c1ccc(C#N)c(C(F)(F)F)c1)C1C=C(n2ccnc2)CCC1(C)C (racemic) [Ex. 130 racemate] | full-length human AR (Homo sapiens) | 1.81 |
| CCN(c1ccc(C#N)c(C(F)(F)F)c1)C1CCCC(c2nnn(C)n2)C1 (single isomer, unassigned; isomer 4) [Ex. 11 cis of 2,5-isomer] | full-length human AR (Homo sapiens) | 1.41 |
| CCN(c1ccc(C#N)c(C(F)(F)F)c1)C1CCCC(O)(c2cccnc2)C1 (single isomer, unassigned) [Ex. 216 diastereomer 2] | full-length human AR (Homo sapiens) | 1.45 |
| CCN(c1ccc(C#N)c(C(F)(F)F)c1)C1CCC(n2ccnc2)C1 (single isomer, unassigned) [Ex. 86 trans-enantiomer 1] | full-length human AR (Homo sapiens) | 1.86 |
| CCN(c1ccc(C#N)c(C(F)(F)F)c1)C1CCCC(n2ccnn2)C1 (stereo not shown) | full-length human AR (Homo sapiens) | 1.90 |
| CCN(c1ccc(C#N)c(C(F)(F)F)c1)C1CCCC(n2cncn2)C1 (single isomer, unassigned; diastereomer 4) [Ex. 209 cis-diastereomer] | full-length human AR (Homo sapiens) | 1.75 |
| CCN(c1cc(F)c(C#N)c(Cl)c1)C1CCC=C(c2cccnc2)C1 (stereo not shown) | full-length human AR (Homo sapiens) | 0.85 |
| CCN(c1ccc(C#N)c(C(F)(F)F)c1)C1CC=C(c2cnco2)C1 (single isomer, unassigned) [Ex. 233 enantiomer 2] | full-length human AR (Homo sapiens) | 1.46 |
